molecular target: Human Cav3.1 calcium channel (Homo sapiens, UniProt O43497); construct: expressed in transfected cells; host or cells: HEK-293 natClytin/TASK1+Cav3.1 cell line; test: Human Cav3.1 calcium channel patch clamp assay (SyncroPatch 384PE; single point and IC50, voltage dependent block); type: cell-based; conditions: voltage dependent block (VDB); HEK-293 natClytin/TASK1+Cav3.1 cell line; read-out: Cav3.1 IC50
Sequence (O43497 whole entry): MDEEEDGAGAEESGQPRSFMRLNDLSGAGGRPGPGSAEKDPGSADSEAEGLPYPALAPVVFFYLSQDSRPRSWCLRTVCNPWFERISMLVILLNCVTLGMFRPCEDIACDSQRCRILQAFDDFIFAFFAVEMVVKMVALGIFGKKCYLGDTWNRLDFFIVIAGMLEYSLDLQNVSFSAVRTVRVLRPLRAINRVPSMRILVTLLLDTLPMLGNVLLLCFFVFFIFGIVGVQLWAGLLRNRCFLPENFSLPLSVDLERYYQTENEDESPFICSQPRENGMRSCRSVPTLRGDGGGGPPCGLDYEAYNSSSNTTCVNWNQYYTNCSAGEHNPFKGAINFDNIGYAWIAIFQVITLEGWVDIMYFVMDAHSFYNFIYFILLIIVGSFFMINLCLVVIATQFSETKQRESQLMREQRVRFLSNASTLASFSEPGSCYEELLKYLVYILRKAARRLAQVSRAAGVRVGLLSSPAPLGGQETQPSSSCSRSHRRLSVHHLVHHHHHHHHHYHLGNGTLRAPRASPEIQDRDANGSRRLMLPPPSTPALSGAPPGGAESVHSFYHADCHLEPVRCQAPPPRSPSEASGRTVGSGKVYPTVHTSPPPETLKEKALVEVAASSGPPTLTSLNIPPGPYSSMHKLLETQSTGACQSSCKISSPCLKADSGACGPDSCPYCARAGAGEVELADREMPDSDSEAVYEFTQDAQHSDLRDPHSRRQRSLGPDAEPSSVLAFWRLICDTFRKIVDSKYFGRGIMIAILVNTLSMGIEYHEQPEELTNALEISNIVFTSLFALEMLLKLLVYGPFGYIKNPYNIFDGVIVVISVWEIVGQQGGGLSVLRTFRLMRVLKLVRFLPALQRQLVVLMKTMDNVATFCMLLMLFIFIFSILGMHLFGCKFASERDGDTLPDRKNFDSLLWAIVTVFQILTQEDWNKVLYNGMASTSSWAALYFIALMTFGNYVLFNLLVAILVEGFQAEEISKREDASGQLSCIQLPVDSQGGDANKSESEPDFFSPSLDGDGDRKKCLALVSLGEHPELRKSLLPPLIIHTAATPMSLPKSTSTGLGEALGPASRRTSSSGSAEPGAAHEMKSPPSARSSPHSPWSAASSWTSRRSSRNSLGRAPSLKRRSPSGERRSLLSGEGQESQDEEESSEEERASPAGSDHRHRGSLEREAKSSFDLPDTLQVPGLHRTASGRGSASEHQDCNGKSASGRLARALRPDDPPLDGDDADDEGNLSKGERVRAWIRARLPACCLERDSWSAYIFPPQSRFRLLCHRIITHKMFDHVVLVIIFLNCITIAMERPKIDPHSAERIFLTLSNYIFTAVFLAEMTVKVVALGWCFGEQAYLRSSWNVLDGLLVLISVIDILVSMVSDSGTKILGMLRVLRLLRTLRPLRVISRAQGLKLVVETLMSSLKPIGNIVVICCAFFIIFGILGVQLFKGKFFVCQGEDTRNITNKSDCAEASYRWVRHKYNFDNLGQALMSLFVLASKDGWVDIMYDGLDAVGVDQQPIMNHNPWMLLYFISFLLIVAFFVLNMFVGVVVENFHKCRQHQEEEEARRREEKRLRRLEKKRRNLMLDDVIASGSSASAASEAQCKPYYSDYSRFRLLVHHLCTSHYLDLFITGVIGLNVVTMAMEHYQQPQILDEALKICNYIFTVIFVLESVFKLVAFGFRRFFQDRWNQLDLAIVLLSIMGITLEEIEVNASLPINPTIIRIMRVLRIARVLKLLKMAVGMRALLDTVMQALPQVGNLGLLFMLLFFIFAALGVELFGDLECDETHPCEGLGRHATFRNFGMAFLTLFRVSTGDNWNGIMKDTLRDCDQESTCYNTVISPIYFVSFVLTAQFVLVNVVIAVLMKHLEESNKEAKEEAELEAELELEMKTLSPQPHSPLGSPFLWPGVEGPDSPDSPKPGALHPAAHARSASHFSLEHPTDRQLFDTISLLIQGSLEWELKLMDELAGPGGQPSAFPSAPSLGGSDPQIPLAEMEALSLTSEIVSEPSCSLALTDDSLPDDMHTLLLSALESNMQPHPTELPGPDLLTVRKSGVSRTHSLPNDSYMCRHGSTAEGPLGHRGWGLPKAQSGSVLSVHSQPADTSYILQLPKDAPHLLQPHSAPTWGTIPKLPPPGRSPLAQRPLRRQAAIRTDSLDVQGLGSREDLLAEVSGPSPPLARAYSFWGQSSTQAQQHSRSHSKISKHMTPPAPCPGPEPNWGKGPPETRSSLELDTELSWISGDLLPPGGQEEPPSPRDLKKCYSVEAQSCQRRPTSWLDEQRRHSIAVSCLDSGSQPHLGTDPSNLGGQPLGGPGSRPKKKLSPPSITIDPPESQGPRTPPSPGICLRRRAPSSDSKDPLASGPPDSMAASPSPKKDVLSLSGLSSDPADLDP
Known IC50 of a selection of compounds
Just the number in nM, nothing appended.

• Cc1cccc2[nH]c(C(C)N3CC4CCC(C3)N4CC(=O)NC(C)(C)C)nc12 (centres unmarked) = 415
• CC(C)(C)NC(=O)CN1CCN(Cc2nnc(-c3cc(F)cc(Cl)c3)[nH]2)CC1 = 2800
• O=C(CN1CC2CC(C1)N2CC(F)C1CCCCC1)Nc1cc(F)cc(Cl)c1 (centres unmarked) = 1160
• CC(C)(C)NC(=O)CN1CC2CCC1CCN2Cc1nc2c(Cl)cc(F)cc2[nH]1 (centres unmarked) = 575
• CC(C)(C)NC(=O)CN1CCC(CNc2nccc3c(F)cc(Cl)cc23)CC1 = 243
• CC1(C)CCN1C(=O)CN1C2CC1CN(Cc1nc3c(Cl)cc(F)cc3[nH]1)C2 = 249

Okay, now this compound:
Ask | # lookup: IC50 of `Fc1cc(Cl)c2nc(CN3CC4CC(C3)N4CC3CCC(F)(F)CC3)[nH]c2c1`
Reply | 231

###

target: Human Cav3.1 calcium channel (Homo sapiens, UniProt O43497); construct: expressed in transfected cells; host or cells: HEK-293 natClytin/TASK1+Cav3.1 cell line; assay: Human Cav3.1 calcium channel patch clamp assay (SyncroPatch 384PE; single point and IC50, voltage dependent block); assay type: cell-based; details: Testing Conc 1.25; HEK-293 natClytin/TASK1+Cav3.1 cell line, patch clamp
Rule for this label: Y means % Inhibition (Single Point Data) is less than 80%; N means % Inhibition (Single Point Data) is at least 80%.

• CC(C)(C)NC(=O)CN1C2CC1CN(CC(=O)Nc1ccn(Cc3ccc(C#N)cn3)n1)C2 [Compound 313] = Y
• CC(C)(C)NC(=O)CN1C2CCC1CN(Cc1ncc3ccccc3n1)C2 [Compound 186] = Y
• Cc1ccc(F)c2[nH]c(CN3CC4CC(C3)N4CC(=O)NC(C)(C)C(F)(F)F)nc12 [Compound 144] = N
• COc1cccc(NC(=O)CN2CC3CC(C2)N3CC(=O)NC(C)(C)C)c1 [Compound 208] = Y

Ask | Is % Inhibition (Single Point Data) strictly under 80% for the entry Cc1cccc2[nH]c(CN3CC4CC(C3)N4CCC3CCOCC3)nc12 [Compound 204] ?
Reply | Y

Ask | Is % Inhibition (Single Point Data) strictly under 80% for the entry CC(C(=O)Nc1ccc(F)c(Cl)c1)N1CC2CC(C1)N2CC(=O)NC(C)(C)C (stereo not shown) [Compound 29] ?
Reply | N

Ask | Is % Inhibition (Single Point Data) strictly under 80% for the entry C[C@H](c1nc2c(Cl)cc(F)cc2[nH]1)N1CC2CCC(C1)N2CC(=O)NC(C)(C)C [Compound 118] ?
Reply | N

Ask | Is % Inhibition (Single Point Data) strictly under 80% for the entry CC(C)(C)NC(=O)CN1C2CC1CN(Cc1nc3c(OC(F)F)ccc(F)c3[nH]1)C2 [Compound 173] ?
Reply | N

Ask | Is % Inhibition (Single Point Data) strictly under 80% for the entry CC(C)(C)NC(=O)CN1C[C@H]2CC[C@@H]1CN2CC(=O)Nc1ccc(F)c(OC(F)F)c1 [Compound 266] ?
Reply | Y

Ask | Is % Inhibition (Single Point Data) strictly under 80% for the entry CN(C(=O)CN1C2CC1CN(Cc1nc3c(Cl)cc(F)cc3[nH]1)C2)C(C)(C)CO [Compound 128] ?
Reply | Y

Ask | Is % Inhibition (Single Point Data) strictly under 80% for the entry CC(C)(C)NC(=O)CN1C[C@@H]2C[C@H]1CN2CC(=O)NC12CCC(CC1)CC2 [Compound 287] ?
Reply | Y

Ask | Is % Inhibition (Single Point Data) strictly under 80% for the entry O=C(CN1C[C@@H]2C[C@H]1CN2CC1(O)CCC(F)(F)CC1)NC12CC3CC(CC(C3)C1)C2 [Compound 277] ?
Reply | Y

Ask | Is % Inhibition (Single Point Data) strictly under 80% for the entry Cc1cc(F)cc(NC(=O)CN2CC3CC(C2)N3CC(=O)NC(C)(C)C)c1 [Compound 215] ?
Reply | N

Ask | Is % Inhibition (Single Point Data) strictly under 80% for the entry Cn1nc(C(C)(C)C)cc1NC(=O)CN1CC2CCC(C1)N2CC(=O)NC(C)(C)C [Compound 6] ?
Reply | Y

Ask | Is % Inhibition (Single Point Data) strictly under 80% for the entry O=C(CN1CC2CC1CN2CC(=O)NC1(C(F)(F)F)CC1)Nc1cc(F)cc(OC(F)F)c1 (stereo not shown) [Compound 56] ?
Reply | Y
